Source of measurements: patent US6541502B1

- test_target: dopamine autoreceptor (Rattus norvegicus)
- Construct: homogenized rat striatal brain tissue; from tissue; host or cells: rat striatal brain tissue homogenate
- Sequence (P61169 whole entry): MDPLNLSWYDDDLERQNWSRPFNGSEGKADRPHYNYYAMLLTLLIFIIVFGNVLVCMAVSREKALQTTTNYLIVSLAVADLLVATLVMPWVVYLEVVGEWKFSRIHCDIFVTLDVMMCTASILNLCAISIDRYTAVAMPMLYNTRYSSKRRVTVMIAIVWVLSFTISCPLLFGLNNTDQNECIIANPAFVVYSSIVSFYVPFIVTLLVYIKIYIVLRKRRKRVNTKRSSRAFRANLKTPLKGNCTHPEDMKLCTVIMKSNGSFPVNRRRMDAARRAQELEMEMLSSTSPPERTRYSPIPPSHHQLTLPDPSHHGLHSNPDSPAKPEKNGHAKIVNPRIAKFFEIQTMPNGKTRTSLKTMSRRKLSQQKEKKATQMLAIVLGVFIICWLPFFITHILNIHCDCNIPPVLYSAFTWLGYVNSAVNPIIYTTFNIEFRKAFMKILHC
- protocol_description: [3H]-quinpirole binding, dopamine autoreceptor affinity (D2 Quin.)
- run_parameters: homogenized rat striatal brain tissue
experimental_endpoint: IC50 (nM)
Reply with just the number (in nM).

Q: Give its IC50 value. Item: FC(F)(F)c1nc2ccc3c(c2[nH]1)OC(CNCc1ccccc1)CC3 (stereo not shown) [Example 1]
Ans: 11.5
